# study target: human PILRA R78 on cells (human, UniProt Q9UKJ1 20-303)
# Sequence (Q9UKJ1 20-303 limits assumed): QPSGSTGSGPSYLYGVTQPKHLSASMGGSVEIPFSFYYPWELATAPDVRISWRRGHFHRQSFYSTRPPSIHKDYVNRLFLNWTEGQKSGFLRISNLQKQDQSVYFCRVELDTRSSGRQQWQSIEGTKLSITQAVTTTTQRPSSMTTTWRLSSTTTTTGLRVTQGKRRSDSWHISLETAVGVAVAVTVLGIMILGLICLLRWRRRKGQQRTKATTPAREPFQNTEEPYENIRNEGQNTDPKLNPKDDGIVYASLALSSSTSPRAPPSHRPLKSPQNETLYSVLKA
# method description: cell-based or functional assay
quantity kind: pSTAT3 S727 induction, Fold Over Background (fold)

{"columns": ["binder", "observed value"],
 "data": [
  ["Anti-PILRA antibody clone 35 (antibody, V domains shown, Humanized; also called Ab.35) VH: EVQLVQSGAEVKKPGASVKVSCKASGYTFTEYYMYWVRQAPGQGLELIGRIDPEDGGTDYVEKFKNRATLTADTSTSTAYLELSSLRSEDTAVYFCASTIRGTVFVYWGQGTLVTVSS VL: DIQMTQSPSSLSASVGDRVTITCRPSEDIYNGLAWYQQKPGKSPKLLIYNANSLHTGVPSRFSGSGSGTDYTLTISSLQPEDFATYFCQQYYDYPLTFGQGTKVEIK", 30.1]
]}
